Measured selective drug sensitivity score, listed per entry.
Test system: MHH-CALL-2;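 also: ALL cell lines in 384-well plates, five doses spanning 10,000-fold, each plate scaled between vehicle and 100 µmol/L benzalkonium chloride controls, sDSS an adapted area-under-curve metric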
Experiment: selective drug sensitivity score (sDSS, relative to normal bone marrow) (sDSS (score)); higher = more potent and effective on the cell line relative to normal bone marrow cells
Conditions: 72 h

compound: C[C@]12CC[C@H](O)CC1=CC[C@@H]1[C@@H]2CC[C@]2(C)C(c3cccnc3)=CC[C@@H]12 [Abiraterone] (top concentration 5000 nM)
selective drug sensitivity score: 0.88
//
compound: COc1cc([C@@H]2c3cc4c(cc3[C@@H](O[C@@H]3O[C@@H]5CO[C@@H](c6cccs6)O[C@H]5[C@H](O)[C@H]3O)[C@H]3COC(=O)[C@H]23)OCO4)cc(OC)c1O [Teniposide] (top concentration 10000 nM)
selective drug sensitivity score: 0
//
compound: CNC(=O)CN1CCC(Oc2cc3c(Nc4cccc(Cl)c4F)ncnc3cc2OC)CC1 [Sapitinib] (top concentration 1000 nM)
selective drug sensitivity score: 0
//
compound: C[C@H]1CNCCCN1S(=O)(=O)c1cccc2cncc(F)c12 [Ripasudil] (top concentration 10000 nM)
selective drug sensitivity score: -0.02
//
compound: C=CCN(/C=C1/C(=O)O[C@H](COC)[C@@]2(C)C1=C(O)C(=O)C1=C2[C@H](OC(C)=O)C[C@]2(C)C(=O)CC[C@@H]12)CC=C [Sonolisib] (top concentration 10000 nM)
selective drug sensitivity score: 0.34
//
compound: Cn1nccc1Nc1nccc(-c2ccn([C@H](CO)c3ccc(Cl)c(F)c3)c(=O)c2)n1 [Ravoxertinib] (top concentration 10000 nM)
selective drug sensitivity score: 8.4
//
compound: Cc1c(C(=O)Nc2ccc(N3C[C@@H](C)O[C@@H](C)C3)nc2)cccc1-c1ccc(OC(F)(F)F)cc1 [Sonidegib] (top concentration 10000 nM)
selective drug sensitivity score: 7.48
